B1: RTP4 (parent)
chain: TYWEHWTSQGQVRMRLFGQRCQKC

variants of: B1; assay: protein stability index of a GFP-peptide fusion (GPS, HEK-293T) (PSI 1-6); higher = more stable; conditions: c terminus: a fixed tail appended;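 also: lentivirally expressed fusions sorted by FACS into six bins by GFP to DsRed ratio, PSI derived from sequencing read proportions per bin multiplied by bin number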
Consider the following variants; for each one, report its protein stability index.

Sample "W6T" — what was its protein stability index?
1.94

Sample "S8P" — what was its protein stability index?
1.66

Sample "F17T" — what was its protein stability index?
2.02

Sample "Y2P" — what was its protein stability index?
2.1

Sample "C24P" — what was its protein stability index?
1.69

Sample "Q19P" — what was its protein stability index?
1.25

Sample "F17P" — what was its protein stability index?
2.38

Sample "M14L" — what was its protein stability index?
1.39

Sample "Q11K" — what was its protein stability index?
2.48

Sample "R20L" — what was its protein stability index?
1.75

Sample "W3C" — what was its protein stability index?
5.05

Sample "R13G" — what was its protein stability index?
1.65

Sample "M14C" — what was its protein stability index?
2.58

Sample "Q19C" — what was its protein stability index?
2.9

Data origin, for the record: the supplement of paper PMC10567573
